Assay: Determination of half-life in SD rats (IV and PO, plasma LC-MS/MS)
Conditions: Sprague-Dawley (SD), rat, iv, 1 mg/kg
Please mark condition met if the recorded half-life is equal to or greater than 1 h, and condition not met if it falls below.

Please check the record COc1ccc(COc2nc(N3CCC4(CC3)CC4)ncc2C(=O)NCc2ncccn2)cc1Cl [Compound 8] and state if its half-life is at or above 1 h.
condition met

Please check the record COc1ccc(COc2nc(N3CCCC34CC4)ncc2C(=O)N[C@H]2CC[C@H](O)CC2)cc1Cl [Compound 20] and state if its half-life is at or above 1 h.
condition not met

Please check the record COc1ccc(COc2nc(N3CCC4(CC3)CC4)ncc2C(=O)N[C@H]2CC[C@H](O)CC2)cc1Cl [Compound 12] and state if its half-life is at or above 1 h.
condition met

Please check the record COc1ccc(COc2nc(N3CC4CC4C3)ncc2C(=O)NCc2ccccc2)cc1Cl (centres unmarked) [Compound 1] and state if its half-life is at or above 1 h.
condition met

Please check the record COc1ccc(COc2nc(N3CC4CC4C3)ncc2C(=O)NCc2ccccn2)cc1Cl (centres unmarked) [Compound 4] and state if its half-life is at or above 1 h.
condition not met

Please check the record COc1ccc(COc2nc(N3CCC4(CC4)C3)ncc2C(=O)N[C@H]2CC[C@H](O)CC2)cc1Cl [Compound 19] and state if its half-life is at or above 1 h.
condition met

Please check the record COc1ccc(COc2nc(N3CCC4(CC4)C3)ncc2C(=O)NCc2ccc(F)cc2)cc1Cl [Compound 17] and state if its half-life is at or above 1 h.
condition met

Please check the record COc1ccc(COc2nc(N3CC4CC4C3)ncc2C(=O)NCc2ccc(F)cc2)cc1Cl (centres unmarked) [Compound 6] and state if its half-life is at or above 1 h.
condition met
